Hello, the source for this data is paper PMC7812675, in case you need it.

- tested.system: Magnetospirillum gryphiswaldense cereblon isoform 4 (MsCI4) (Magnetospirillum gryphiswaldense)
- Sequence (A4TVL0 1-124): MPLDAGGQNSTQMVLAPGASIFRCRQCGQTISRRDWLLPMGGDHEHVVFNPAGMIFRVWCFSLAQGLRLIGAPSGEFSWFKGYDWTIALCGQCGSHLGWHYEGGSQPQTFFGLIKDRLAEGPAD
- particulars: initial fluorescence measurement, 200 nM BODIPY-uracil
recorded.metric: pKd
Worth noting: pKd values are minus log10 of concentrations stated in mol/L.

Provide one value: measured pKd of CC1=CC(C)=[N+]2C1=C(CCC(=O)NCCn1ccc(=O)[nH]c1=O)c1c(C)cc(C)n1[B-]2(F)F [BODIPY-uracil]
5.42
